Listing of recorded IC50 by entry.
# System: Leishmania donovani
# measurement.notes: Antiparasitic activity against Leishmania donovani S1 promastigotes assessed as growth inhibition after 72 hrs by alamar blue assay
# Format: functional, organism-based
# measurement.setup: S1, 72 h
quantity: IC50 (µM)

molecule="C[C@@H]1[C@H](O)[C@@H](C)/C=C/C=C/C=C/C=C/C=C/C=C/C=C/[C@H](O[C@@H]2O[C@H](C)[C@@H](O)[C@H](N)[C@@H]2O)C[C@@H]2O[C@](O)(C[C@@H](O)C[C@@H](O)[C@H](O)CC[C@@H](O)C[C@@H](O)CC(=O)O[C@H]1C)C[C@H](O)[C@H]2C(=O)O [AMPHOTERICIN B]" value_units=µM recorded_result=0.31
molecule=CC(=O)C(=C/C=C/c1ccc(Br)cc1)C(C)=O value_units=µM recorded_result=9.55
molecule=CC1(C)CC(=O)C(=C/C=C/c2ccc(Br)cc2)C(=O)C1 value_units=µM recorded_result=9.6
molecule=COc1ccc(/C=C/C=C2C(=O)CC(C)(C)CC2=O)cc1 value_units=µM recorded_result=30.6
molecule="COc1ccc(/C=C/C=C2C(=O)CC(c3ccccc3)CC2=O)cc1 (centres undefined)" value_units=µM recorded_result=7.52
molecule=CC1(C)CC(=O)C(=C/C=C/c2ccc(F)cc2)C(=O)C1 value_units=µM recorded_result=10.7
molecule=CC1(C)CC(=O)C(=C/C=C/c2ccccc2)C(=O)C1 value_units=µM recorded_result=20.1
molecule=C/C=C/C=C/C=C1C(=O)CCCC1=O value_units=µM recorded_result=56.8
molecule=COc1ccc(/C=C/C=C2C(=O)CCC2=O)cc1 value_units=µM recorded_result=7.01

Each recorded value in this set is attributed to ChEMBL document CHEMBL3217679.
